Target: OCTN2 (hOCTN2) (Homo sapiens, UniProt O76082)
Construct: human OCTN2 stably overexpressed in MDCK cells; no tag stated
Sequence (O76082 1-557): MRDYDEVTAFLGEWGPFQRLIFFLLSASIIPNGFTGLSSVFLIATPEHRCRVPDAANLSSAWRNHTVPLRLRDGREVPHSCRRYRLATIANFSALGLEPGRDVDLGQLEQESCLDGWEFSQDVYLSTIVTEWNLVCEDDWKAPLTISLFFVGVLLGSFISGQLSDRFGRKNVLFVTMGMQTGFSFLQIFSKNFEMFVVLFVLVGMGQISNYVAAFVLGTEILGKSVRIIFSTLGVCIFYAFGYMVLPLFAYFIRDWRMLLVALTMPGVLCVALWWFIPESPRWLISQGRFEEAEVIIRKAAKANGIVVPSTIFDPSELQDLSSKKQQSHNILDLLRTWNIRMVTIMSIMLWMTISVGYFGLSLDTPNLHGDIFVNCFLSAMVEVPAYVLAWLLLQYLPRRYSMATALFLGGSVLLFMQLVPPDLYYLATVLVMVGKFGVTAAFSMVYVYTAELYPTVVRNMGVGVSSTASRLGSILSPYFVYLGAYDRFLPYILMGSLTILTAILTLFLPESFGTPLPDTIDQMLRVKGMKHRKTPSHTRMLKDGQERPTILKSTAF
Assay: d9-carnitine uptake inhibition, LC-MS/MS
observable: pIC50
// pIC50 here means minus log10 of the molar concentration (mol/L)

Memo: C[N+](C)(C)CCCCC(=O)O , reported pIC50: 5.38
